- system name: T1, A138 iCAPS (CB1 with ICL3 native sequence replaced with protein 1 sequence) (human, UniProt P21554 99-414)
- T1 construct: The insert stands inside the chain in place of ICL3
- T1 sequence (P21554 whole entry): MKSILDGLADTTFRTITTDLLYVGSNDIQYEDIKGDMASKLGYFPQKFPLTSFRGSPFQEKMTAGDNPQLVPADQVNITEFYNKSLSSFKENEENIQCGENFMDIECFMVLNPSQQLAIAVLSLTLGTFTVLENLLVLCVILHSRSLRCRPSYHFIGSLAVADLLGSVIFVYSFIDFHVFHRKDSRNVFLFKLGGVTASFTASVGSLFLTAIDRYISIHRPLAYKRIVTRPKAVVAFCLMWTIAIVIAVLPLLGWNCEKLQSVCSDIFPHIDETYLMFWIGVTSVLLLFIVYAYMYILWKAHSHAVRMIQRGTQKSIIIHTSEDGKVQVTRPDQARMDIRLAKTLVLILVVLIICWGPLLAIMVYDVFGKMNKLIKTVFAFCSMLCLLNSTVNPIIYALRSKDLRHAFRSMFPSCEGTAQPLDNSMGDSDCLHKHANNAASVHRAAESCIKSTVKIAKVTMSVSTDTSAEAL
- experimental protocol: ELISA, purified IgG on A138 CB1 iCAPS
pEC50: −log10 of the molar value.
Listing of entries alongside the reported pEC50.
outcome measure: pEC50

# binder, measurement
rows = [
    ("PA2LR3-P4C6 (chimeric) (antibody, V domains shown) VH: EVQLQQSGAELVRPGSSVKISCKASGYAFSYYWMNWVKQRPGQGLEWIGQIYPGDGDTNYNGKFKGKATLTADKSSSTAYMQLSSLTSEDSAVYFCARSHGNYFPYWGQGTLVTVSA VL: DIVITQSPAIVSASLGERVTMTCTASSSVSSSYLHWYQQKPGSSPKLWIYSTSNLASGVPARFSGSGSGTSYSLTISSMEAEDAATYYCQQWSSYPLTFGAGTKLEIKR", 9.40),
    ("PA2LR3-P1H4 (chimeric) (antibody, V domains shown) VH: EVQLQQSGAELVRPGSSVKISCKASGYVFGNYWMNWVKQRPGQGLEWIGQIYPGDGDTNYNGKFKGKATLTADKSSSTAYMQLSSLTSEDSAVYFCARSHGNYFPYWGQGTLVTVSA VL: QIVLTQSPAIMSASLGERVTMTCTASSSVSSSYLHWYQQKPGSSPKLWIYSTSNLASGVPARFSGSGSGTSYSLTISSMEAEDAATYYCQQWSSYPLTFGAGTKLELKR", 7.68),
    ("PA2LR3-P2D3 (chimeric) (antibody, human IgG1, kappa, V domains shown) VH: EVQLQQSGAELVRPGSSVKISCKASGYAFSYYWMNWVKQRPGQGLEWIGQIYPGDGDTNYNGKFKGKATLTADKSSSTAYMQLSSLTSEDSAVYFCARSHGSYFAYWGQGTLVTVSA VL: DIELAQSPASLAVSLGQRATISCRASESVDSYGNSFMHWYQQKPGQPPKLLIYLASNLESGVPARFSGSGSRADFTLTIDPVEADDAATYYCLQYASSPPTFGAGTKLEIKR", 8.31),
]
